- System: MDA-MB-468 breast
- TEST METHOD NOTES: NCI tumour cell line growth inhibition, 48 h
READOUT: TGI

O=C(COc1ccc(/C=C2\Oc3ccc4ccccc4c3C2=O)cc1)c1ccc([N+](=O)[O-])cc1    3.05 µM
C[C@@H](Nc1nc(N[C@H](C)C(F)(F)F)nc(-c2cccc(Cl)n2)n1)C(F)(F)F    > 100 µM
O=C(NC1CCN(Cc2ccccc2)CC1)c1cc(-c2cccnc2)nc2ccc(Cl)cc12    57 µM

Query string: Recall the recorded TGI for COc1ccccc1C1C2=C(COC2=O)Oc2cc3c(cc21)OCO3 (centres undefined) with MDA-MB-468 breast and state it.
Result string: > 100 µM

Query string: Can you look up TGI on MDA-MB-468 breast for CC/C=C\C[C@H]1C/C=C2/C(=O)C=C[C@H]2C/C=C\CCCC(=O)O1 ?
Result string: 7.95 µM

Source listed as PubChem BioAssay (NCI).
